# maps each entry to its LD50 at 336 h
ASSAY METHOD TEXT: Acute toxicity, single oral dose
Type: in vivo
MEASUREMENT SETUP: mouse, in vivo, po; read-out: Acute toxicity mg/kg p.o.
Protocol: The acute toxicity of the substances tested was determined in white mice after oral adminstration of a single dose (observation time: 14 days).
TEST READOUT: LD50 at 336 h

[[record]]
molecule = "Cc1ccc(-c2nc3cc(C4=NNC(=O)CC4C)ccc3[nH]2)cc1 (stereo not drawn)"
result = "> 600 mg/kg"

[[record]]
molecule = "Cc1nc2cc(C3=NNC(=O)C(C)C3)ccc2[nH]1 (stereo not drawn) [N, reference compound]"
result = "> 250 mg/kg"

[[record]]
molecule = "COc1ccc(-c2nc3ccc(C4=NNC(=O)CC4C)cc3[nH]2)cc1 (stereo not drawn)"
result = "~600 mg/kg"

[[record]]
molecule = "Cc1nc2cc(C3=NNC(=O)CC3C)ccc2[nH]1 (stereo not drawn)"
result = "> 600 mg/kg"

[[record]]
molecule = "CC1CC(=O)NN=C1c1ccc2[nH]c(-c3ccccc3F)nc2c1 (stereo not drawn)"
result = "> 600 mg/kg"

[[record]]
molecule = "CC1CC(=O)NN=C1c1ccc2[nH]c(C(F)(F)F)nc2c1 (stereo not drawn)"
result = "> 450 mg/kg"

